biological target: KCNQ2/3 channels (Homo sapiens, UniProt O43525+O43526); construct: expressed in transfected cells; experiment: Fluorescence assay using a voltage sensitive dye (fluorimetry); assay type: cell-based; conditions: CHO-K1 cells expressing KCNQ2/3; IC50 where % efficacy is negative; read-out: Fluorimetry EC50/IC50
Sequence (O43526 whole entry): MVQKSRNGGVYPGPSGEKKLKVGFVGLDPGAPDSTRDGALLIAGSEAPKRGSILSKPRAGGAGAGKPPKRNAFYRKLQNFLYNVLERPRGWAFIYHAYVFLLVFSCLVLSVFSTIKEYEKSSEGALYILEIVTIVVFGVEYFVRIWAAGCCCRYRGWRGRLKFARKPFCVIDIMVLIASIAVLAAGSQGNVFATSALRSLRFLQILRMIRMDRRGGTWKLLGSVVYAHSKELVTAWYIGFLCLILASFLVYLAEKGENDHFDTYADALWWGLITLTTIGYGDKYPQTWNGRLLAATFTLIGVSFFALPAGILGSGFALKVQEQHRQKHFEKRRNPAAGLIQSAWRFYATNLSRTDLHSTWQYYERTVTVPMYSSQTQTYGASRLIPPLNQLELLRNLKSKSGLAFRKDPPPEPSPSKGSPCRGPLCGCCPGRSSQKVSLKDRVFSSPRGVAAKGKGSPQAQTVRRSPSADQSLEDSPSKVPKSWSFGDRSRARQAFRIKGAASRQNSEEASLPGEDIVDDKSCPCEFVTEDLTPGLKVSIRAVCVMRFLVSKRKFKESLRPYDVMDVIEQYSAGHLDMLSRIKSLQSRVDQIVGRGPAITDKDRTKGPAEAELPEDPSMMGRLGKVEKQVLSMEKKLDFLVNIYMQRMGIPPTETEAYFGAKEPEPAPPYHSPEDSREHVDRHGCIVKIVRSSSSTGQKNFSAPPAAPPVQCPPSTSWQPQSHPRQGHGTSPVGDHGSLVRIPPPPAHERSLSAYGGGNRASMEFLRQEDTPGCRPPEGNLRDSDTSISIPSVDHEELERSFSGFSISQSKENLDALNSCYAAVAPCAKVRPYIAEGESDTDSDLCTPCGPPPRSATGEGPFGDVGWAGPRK
Sequence (O43525 whole entry): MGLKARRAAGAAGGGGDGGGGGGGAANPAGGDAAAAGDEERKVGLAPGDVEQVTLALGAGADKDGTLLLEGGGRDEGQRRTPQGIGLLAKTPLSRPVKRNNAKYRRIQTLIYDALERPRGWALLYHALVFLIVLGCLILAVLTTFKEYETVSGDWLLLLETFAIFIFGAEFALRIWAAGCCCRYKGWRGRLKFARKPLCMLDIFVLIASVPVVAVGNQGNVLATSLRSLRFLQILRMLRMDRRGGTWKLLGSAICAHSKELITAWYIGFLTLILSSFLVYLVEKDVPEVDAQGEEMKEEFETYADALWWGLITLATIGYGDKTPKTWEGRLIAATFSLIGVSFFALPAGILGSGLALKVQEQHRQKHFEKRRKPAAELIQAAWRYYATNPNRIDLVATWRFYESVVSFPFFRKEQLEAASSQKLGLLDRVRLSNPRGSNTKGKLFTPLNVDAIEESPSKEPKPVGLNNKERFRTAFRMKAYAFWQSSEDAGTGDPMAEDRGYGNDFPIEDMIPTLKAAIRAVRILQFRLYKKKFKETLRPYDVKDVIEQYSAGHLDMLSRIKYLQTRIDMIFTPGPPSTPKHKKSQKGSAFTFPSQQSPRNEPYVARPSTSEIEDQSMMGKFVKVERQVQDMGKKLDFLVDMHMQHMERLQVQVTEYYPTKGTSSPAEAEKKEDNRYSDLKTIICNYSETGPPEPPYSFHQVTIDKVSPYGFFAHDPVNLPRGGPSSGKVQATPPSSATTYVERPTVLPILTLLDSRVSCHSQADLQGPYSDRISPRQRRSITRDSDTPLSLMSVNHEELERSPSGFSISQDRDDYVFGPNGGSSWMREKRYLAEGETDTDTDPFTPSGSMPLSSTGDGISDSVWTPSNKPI
EC50 less than 200 nM is TRUE; EC50 greater than or equal to 200 nM is FALSE.

Answered cases to consult:
Input line: API: query returns whether the compound falls strictly under 200 nM in EC50. Query: "CCSc1nc(N2CCOCC2)cc(C)c1C(=O)NCC1CCCC1"
Output line: FALSE

Input line: Report whether reported EC50 is lower than 200 nM (strictly) for "CCSc1nc(N2CCOCC2)c(F)c(C)c1C(=O)NCc1cccc(F)c1"
Output line: FALSE

Input line: # TODO verify EC50 < 200 nM strictly for this compound: "Cc1cc(N2CCOCC2)nc(C(C)C)c1C(=O)NCCCC(C)(C)C"
Output line: TRUE

Input line: Take the compound "CSc1nc(N2CCOCC2)cc(C)c1C(=O)NCc1cccc(F)c1" and say whether its EC50 is less than 200 nM.
Output line: FALSE

Input line: In plain terms, does "CCN(C)c1nc(N2CCOC[C@H]2C)cc(C)c1C(=O)NCCCC(C)(C)C" come in under 200 nM for EC50?
Output line: FALSE

New cases:
Input line: Please determine if "CCCCNC(=O)c1c(C)cc(N2CCOCC2)nc1SCC" is below 200 nM in terms of EC50.
Output line: FALSE

Input line: Confirm or reject: EC50 of "CCCc1nc(N2CCOCC2)cc(C)c1C(=O)NCCCC(F)(F)F" lies strictly below 200 nM
Output line: FALSE

Input line: EC50 under 200 nM? Item: "CCSc1nc(N2CCOCC2)cc(C)c1C(=O)NCc1cc(F)ccc1F"
Output line: TRUE

---

biological target: KCNQ2/3 channels (Homo sapiens, UniProt O43525+O43526); construct: expressed in transfected cells; experiment: Fluorescence assay using a voltage sensitive dye (fluorimetry); format: cell-based; details: CHO-K1 cells expressing KCNQ2/3; IC50 where % efficacy is negative; read-out: Fluorimetry EC50/IC50
Could you mark each record Yes if its EC50 falls strictly under 0.4 µM, and No if it equals or exceeds it?

Consider the following illustrative entries.
Input line: Strictly below 0.4 µM in EC50? "CCCc1nc(N2CCOCC2)cc(C)c1C(=O)NCc1cccc(F)c1"
Output line: Yes

Input line: Is EC50 of "CCSc1nc(N2CCOCC2)cc(C)c1C(=O)NCCCC(C)C" strictly below 0.4 µM?
Output line: Yes

Input line: hey, is EC50 for "Cc1cc(N2CCOCC2)nc(C(C)(C)C)c1C(=O)NCc1cccc(F)c1" lower than 0.4 µM or not?
Output line: Yes

Input line: Say whether its EC50 is strictly beneath 0.4 µM. Entry: CCSc1nc(N2CCOCC2CCOC)cc(C)c1C(=O)NCc1cccc(F)c1 (stereo not drawn)
Output line: Yes

Input line: Please state whether EC50 is below 0.4 µM for "CCSc1nc(N(C)CCCOC)cc(C)c1C(=O)NCCCC(C)(C)C"
Output line: Yes

---
Input line: Please determine if Cc1cc(N2CCOCC2)nc(C(C)C)c1C(=O)NCCC(O)C(C)(C)C (racemic) is below 0.4 µM in terms of EC50.
Output line: Yes

Input line: Determine whether this molecule shows EC50 lower than 0.4 µM (ties excluded): "Cc1cc(N2CCOCC2)nc(C(C)(C)C)c1C(=O)NCCCC(C)(C)C"
Output line: No

Input line: I'd appreciate it if you could check whether "CCSc1nc(N2CCOCC2)cc(C)c1C(=O)NCCCCC(C)(C)C" has EC50 smaller than 0.4 µM.
Output line: Yes

Input line: I'd appreciate it if you could check whether "CCSc1nc(N2CCOCC2)cc(OC)c1C(=O)NCc1cccc(F)c1" has EC50 smaller than 0.4 µM.
Output line: No

Input line: Is EC50 of "CCSc1nc(NC)cc(C)c1C(=O)NCc1cccc(F)c1" strictly below 0.4 µM?
Output line: No

---

molecular target: KCNQ2/3 channels (Homo sapiens, UniProt O43525+O43526); construct: expressed in transfected cells; assay: Fluorescence assay using a voltage sensitive dye (fluorimetry); format: cell-based; details: CHO-K1, read-out: Fluorimetry % efficacy (retigabine = 100%)
Each item that follows carries a reported Emax.
Numbers only; they are read as %.

Use the examples below as a reference point.
Input line: Which Emax is reported for this compound? "CCc1cc(N2CCOCC2)nc(CC)c1C(=O)NCc1ccc(Cl)cc1"
Output line: 141

Input line: Name the recorded Emax for "COCCc1nc(N2CCOCC2)cc(C)c1C(=O)NCCCC(C)(C)C" .
Output line: 234

Input line: For the compound shown here, "CCOC(=O)CN(C)c1cc(C)c(C(=O)NCc2cccc(F)c2)c(SCC)n1" , give the reported Emax.
Output line: 93

Next:
Input line: I would be grateful if you could share the reported Emax for "CCSc1nc(N2CCC(C(=O)OC)CC2)cc(C)c1C(=O)NCc1cccc(F)c1" .
Output line: 145

---

Parameter: EC50. Scope: all listed entries.
target: KCNQ2/3 channels (Homo sapiens, UniProt O43525+O43526); construct: expressed in transfected cells; experiment: Fluorescence assay using a voltage sensitive dye (fluorimetry); format: cell-based; conditions: CHO-K1 cells expressing KCNQ2/3; IC50 where % efficacy is negative; read-out: Fluorimetry EC50/IC50
Give just the numeric value; nM need not be written.

Here are 3 molecules together with their reported answers.
Input line: Requested field: EC50. Item: CCSc1nc(N2CCOCC2)cc(C)c1C(=O)NCc1cc(F)cc(C(F)(F)F)c1 [Example 93]
Output line: 54

Input line: What value of EC50 has been reported for the following molecule? CCSc1nc(N2CCOCC2)cc(C)c1C(=O)NCCCC(C)(C)OC [Example 318]
Output line: 2880

Input line: EC50 lookup needed for CCSc1nc(N2CCOC[C@H]2COC)cc(C)c1C(=O)NCc1cccc(F)c1 [Example 179] , thanks.
Output line: 243

---
Input line: // EC50 lookup, key: CCSc1nc(N(C)CC2CCCO2)cc(C)c1C(=O)NCc1cccc(F)c1 (stereo not drawn) [Example 294]
Output line: 1030

Input line: What does the data say about its EC50? Entry: CCSc1nc(N2CCOCC2)cc(C)c1C(=O)NCc1ccc(F)cn1 [Example 46]
Output line: 4830

Input line: Look at this molecule and give its reported EC50. Cc1cc(N2CCOCC2)nc(C2CC2)c1C(=O)NCCC(O)C(C)(C)C (racemic) [Example X1]
Output line: 529

Input line: Field request: EC50 | item: CCSc1nc(N2CCC(C)CC2)cc(C)c1C(=O)NCc1cccc(F)c1 [Example 70]
Output line: 163

Input line: Which EC50 reading was recorded for the molecule CCSc1nc(N2CCOCC2)cc(C(F)(F)F)c1C(=O)NCc1cccc(F)c1 [Example 11] ?
Output line: 175

Input line: Which EC50 value is on record for CCSc1nc(N2CCC(C)(C)CC2)cc(C)c1C(=O)NCc1cccc(F)c1 [Example 74] ?
Output line: 702

---

Here, each record is paired with measured Emax data.
molecular target: KCNQ2/3 channels (Homo sapiens, UniProt O43525+O43526); construct: expressed in transfected cells; assay: Fluorescence assay using a voltage sensitive dye (fluorimetry); format: cell-based; settings: CHO-K1, plateau effect relative to saturated retigabine (50 μM) = 100%; CHO-K1 cells expressing KCNQ2/3; negative values = antagonistic; read-out: Fluorimetry % efficacy (retigabine = 100%)
Numbers only; they are read as %.

Use these answered entries as a reference point.
Input line: Dear colleague, I am looking for the recorded Emax of the following compound: "CCSc1nc(N2CCOCC2)cc(C)c1C(=O)NCc1ccc(F)cc1"
Output line: 158

Input line: Can you share its Emax? I mean this compound: "CCSc1nc(N2CCOCC2)cc(C)c1C(=O)NCCCC(C)(F)F"
Output line: 249

Input line: Dear colleague, I am looking for the recorded Emax of the following compound: "CCN(C)c1nc(N2CCOCC2)cc(C)c1C(=O)NCCCC(C)(C)C"
Output line: 225

Continuing:
Input line: What value of measured Emax is listed for "CCSc1nc(N2CCOCC2)cc(C)c1C(=O)NCCCS(C)(=O)=O" ?
Output line: 21

Input line: State the recorded Emax for this entry: CCSc1nc(N2CC(C)OC(C)C2)cc(C)c1C(=O)NCc1cccc(F)c1 (stereo not drawn)
Output line: 109

Input line: What value of Emax has been recorded for this entry: "CCCc1nc(N2CCOCC2)cc(C)c1C(=O)NCCCC(F)(F)F"
Output line: 192

---

molecular target: KCNQ2/3 channels (Homo sapiens, UniProt O43525+O43526); construct: expressed in transfected cells; assay: Fluorescence assay using a voltage sensitive dye (fluorimetry); format: cell-based; conditions: CHO-K1 cells expressing KCNQ2/3; IC50 where % efficacy is negative; read-out: Fluorimetry EC50/IC50
endpoint name: EC50 (nM)
Enter your answer as a number in nM; do not include the unit.

Sample answers from the record:
Input line: I would be grateful if you could share the reported EC50 for "CCSc1nc(N2CCOCC2)cc(C)c1C(=O)NCc1ccc(SC(F)(F)F)cc1" .
Output line: 61

Input line: Fill in the blank: the reported EC50 of "CCSc1nc(N2CCOCC2)cc(C)c1C(=O)NCc1ccc(F)cc1" is ____.
Output line: 124

Input line: Could you share which EC50 value was measured for "CCN(C)c1nc(N2CCOCC2)cc(C)c1C(=O)NCCCC(F)(F)F" ?
Output line: 2500

New cases:
Input line: What EC50 value was documented for this molecule, "CCCc1nc(N2CCOCC2)cc(C)c1C(=O)NCc1ccc(F)cc1" ?
Output line: 236

Input line: Any idea what its EC50 is? The molecule is "CCSc1nc(N2CC(OC)C2)cc(C)c1C(=O)NCc1cccc(F)c1"
Output line: 3870

Input line: Using the record for "CCSc1nc(N2CCOCC2)cc(C)c1C(=O)NCc1cc(C(F)(F)F)ccc1F" , report its EC50.
Output line: 56

Input line: // returns reported EC50 for input CCSc1nc(N(C)C2CCCOC2)cc(C)c1C(=O)NCc1cccc(F)c1 (stereo not drawn)
Output line: 786

Input line: Quick one: EC50 of CCSc1nc(N2CCC(OC)C2)cc(C)c1C(=O)NCc1cccc(F)c1 (stereo not drawn) ?
Output line: 1320

Input line: Sample "COc1nc(N2CCOCC2)cc(C)c1C(=O)NCCCC(F)(F)F" — what was its EC50?
Output line: 1120
